Data provenance: ChEMBL document CHEMBL3988442

Property: Percent Effect; scope: individual compounds
target: Arginase-2, mitochondrial (Homo sapiens) (UniProt P78540); experiment: in vitro enzyme assay to detect the production of urea directly proportional to the activity of Arginase II; type: functional; set-up: scale not given: in the data most compounds retested in dose-response had high values; conditions: 33.3 µM
Write the value in % as a bare number.

Illustrative cases are given below, each with its answer.
# compound, assayed.target, unit, Percent Effect
data = [
    ("Cc1cnc(CN2CCOC(CNc3cccnn3)C2)cn1 (stereo unspecified)", "Arginase-2, mitochondrial (Homo sapiens) (UniProt P78540)", "%", 8.54),
    ("CCC(=O)N1CCCC(c2cc(Nc3ncccn3)nc(C)n2)C1 (stereo unspecified)", "Arginase-2, mitochondrial (Homo sapiens) (UniProt P78540)", "%", -5.8),
    ("N#Cc1ccc(S(=O)(=O)NC(=O)C2CC2)c(C(F)(F)F)c1", "Arginase-2, mitochondrial (Homo sapiens) (UniProt P78540)", "%", -6.41),
]

Kindly note the recorded Percent Effect for COCC(=O)N1CCC(c2cc(C(F)(F)F)n3ccnc3n2)CC1 , which is 0.885

Kindly note the recorded Percent Effect for c1ccc(-c2ccc(C3CNCCO3)nc2)cc1 (stereo unspecified) , which is -3.1

Kindly note the recorded Percent Effect for c1cnnc(N2CCCC(NCc3nnc(-c4ccco4)o3)C2)c1 (stereo unspecified) , which is -0.82

* * *

Biological target: Arginase-2, mitochondrial (Homo sapiens)
Sequence (whole entry): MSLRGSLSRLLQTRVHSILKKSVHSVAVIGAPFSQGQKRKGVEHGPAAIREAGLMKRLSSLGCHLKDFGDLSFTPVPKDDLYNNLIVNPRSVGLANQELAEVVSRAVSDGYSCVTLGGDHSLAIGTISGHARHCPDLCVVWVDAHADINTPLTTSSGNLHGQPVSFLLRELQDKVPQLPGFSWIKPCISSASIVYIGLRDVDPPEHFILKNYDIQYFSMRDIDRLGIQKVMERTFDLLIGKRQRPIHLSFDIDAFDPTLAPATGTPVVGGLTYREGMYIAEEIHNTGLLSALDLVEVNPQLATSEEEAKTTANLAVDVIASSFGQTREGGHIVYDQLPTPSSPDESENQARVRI
Assay: in vitro enzyme assay to detect the production of urea directly proportional to the activity of Arginase II
Type: functional
Parameters: scale not given: direction of the effect not stated beside the values
Conditions: 33.3 µM
measured.quantity: Percent Effect (%)
Write the value in % as a bare number.

# compound, unit, Percent Effect
records = [
    ("O=C(NCCCN1CCc2ccccc2C1)c1cccnc1O", "%", 2.22),
    ("CC[C@H](C)[C@H](NC(=O)Cc1csc(-c2cccc(Cl)c2)n1)C(=O)O", "%", -4.75),
    ("O=C(NC1(c2nnn(CCO)n2)CCCC1)c1ccccc1", "%", 17.7),
    ("Cc1cc(CN2CC[C@H]3C[C@H](C(=O)N4CCC(C)CC4)O[C@H]3C2)no1", "%", 2.87),
    ("Cc1cnn(C2CCCN(C(=O)c3cc(C4CC4)on3)C2)c1 (configuration not stated)", "%", 0.82),
]

Item: CC(C)(C)OC(=O)NC(C)(C)c1noc(CN2CCCCC2)n1 | System: Arginase-2, mitochondrial (Homo sapiens) | Percent Effect: 1.04

Item: CN(Cc1cnn(C)c1)C(=O)Cn1c(CS(C)(=O)=O)nc2ccccc21 | System: Arginase-2, mitochondrial (Homo sapiens) | Percent Effect: -8.28

Item: CCn1c(CN2CCCC2)nnc1C1CCN(Cc2ccc(C)o2)CC1 | System: Arginase-2, mitochondrial (Homo sapiens) | Percent Effect: 13.6

Item: O=C(Cc1cccs1)N1CC[C@H]2[C@@H]1CCC(=O)N2c1cccnc1 | System: Arginase-2, mitochondrial (Homo sapiens) | Percent Effect: 1.37

Item: COc1ccc(C(=O)N2C[C@@H](CN3CCOCC3)[C@@H](CO)C2)c(C)c1 | System: Arginase-2, mitochondrial (Homo sapiens) | Percent Effect: 6.64

Item: CCOc1ccc(Cl)c(C(=O)NCc2ccc(C(=O)NC)cc2)n1 | System: Arginase-2, mitochondrial (Homo sapiens) | Percent Effect: 4.92

* * *

molecular target: Arginase-2, mitochondrial (Homo sapiens) (UniProt P78540); assay: in vitro enzyme assay to detect the production of urea directly proportional to the activity of Arginase II; format: functional; set-up: scale not given: in the data most compounds retested in dose-response had high values; details: 33.3 µM
measured.quantity: Percent Effect (%)
Write the value in % as a bare number.

Illustrative cases are given below, each with its answer.
# molecule, numeric.readout
measured = [
    ("Cc1nc(C(C)(C)NC(=O)Nc2cccc(C#N)c2)no1", -0.455),
    ("CC(=O)c1sc(Nc2ccc(Cl)cn2)nc1C", 0.913),
    ("CCCN(C(=O)COC)c1nc2c(s1)CCc1c-2cnn1C", 23.9),
    ("COc1cc(C(=O)N2CCCS2(=O)=O)ccc1C", -3.99),
    ("O=C1CC(c2ccccc2)c2c(n3ccsc3nc2=O)N1 (stereo not drawn)", -6.87),
]

Kindly note the recorded Percent Effect for CCOc1cccc2c1OCC(C(=O)NS(=O)(=O)Cc1ccccc1)=C2 , which is 24.9

Kindly note the recorded Percent Effect for Cc1cccc(NC2CCN(C(=O)Nc3cc(C)on3)CC2)n1 , which is 0.76

Kindly note the recorded Percent Effect for CCCN(CC)C(=O)c1cc2c(c3ccccc3n2C)n1C(=O)N(C)C , which is 4.05

Kindly note the recorded Percent Effect for Cc1cnn(CC2CN(CC(=O)Nc3nnc(C)s3)CCO2)c1 (stereo not drawn) , which is -0.766

Kindly note the recorded Percent Effect for COc1cccc(CNc2c(C)cnc3c2c(=O)n(C)c(=O)n3C)c1 , which is 0.909

Kindly note the recorded Percent Effect for CCc1nc(CN2CCCN(C(=O)c3c(C)noc3C)CC2)cs1 , which is 2.87

Kindly note the recorded Percent Effect for COc1ccccc1N1CCC(CNCc2cccc(OC)c2OC)C1 (stereo not drawn) , which is -13.6

Kindly note the recorded Percent Effect for Cc1cccc(NC(=O)NCCCn2nc3ccccn3c2=O)c1C , which is 0

Kindly note the recorded Percent Effect for CCc1ncncc1C(=O)N1CCCN(Cc2ccc(C)cc2)CC1 , which is -0.36

Kindly note the recorded Percent Effect for CN(Cc1ccc2c(c1)OCCO2)C(=O)Cn1cccnc1=O , which is 1.33

Kindly note the recorded Percent Effect for CC(O)CN1CCN(C(=O)c2cn(-c3ccccc3Cl)nn2)CC1 (stereo not drawn) , which is 5.71

Kindly note the recorded Percent Effect for N#Cc1ncn(CCC(=O)Nc2ccc(Cl)cc2F)n1 , which is -1.6

Kindly note the recorded Percent Effect for COc1ccc(C)cc1CSCCn1nc2ccccn2c1=O , which is -1.47

Kindly note the recorded Percent Effect for CC(C)C(NC(=O)Cn1ccc(=O)n(C)c1=O)c1ccc(F)cc1 (stereo not drawn) , which is 5.53

Kindly note the recorded Percent Effect for CC(=O)N1CCCN(Cc2csc(-c3ncccn3)n2)CC1 , which is 3.55

Kindly note the recorded Percent Effect for Cc1noc(C2CCCCN2C(=O)NC2CCCC2)n1 (stereo not drawn) , which is -2.37

Kindly note the recorded Percent Effect for CCc1cc(N2CCSCC2)n2nc(C)c(C)c2n1 , which is 1.04

Kindly note the recorded Percent Effect for Cc1ccc(-c2cccc(-c3ccn(CCN4CCCC4)n3)c2)nn1 , which is 0.952

* * *

molecular target: Tyrosyl-tRNA synthetase, putative (Trypanosoma cruzi (strain CL Brener)) (UniProt Q4DSP6); assay: Trypanosoma cruzi tyrosyl tRNA synthetase (TcYRS) SOP; type: functional; parameters: scale not given: direction of the effect not stated beside the values; conditions: 30 µM
Sequence (Q4DSP6 as listed by the source): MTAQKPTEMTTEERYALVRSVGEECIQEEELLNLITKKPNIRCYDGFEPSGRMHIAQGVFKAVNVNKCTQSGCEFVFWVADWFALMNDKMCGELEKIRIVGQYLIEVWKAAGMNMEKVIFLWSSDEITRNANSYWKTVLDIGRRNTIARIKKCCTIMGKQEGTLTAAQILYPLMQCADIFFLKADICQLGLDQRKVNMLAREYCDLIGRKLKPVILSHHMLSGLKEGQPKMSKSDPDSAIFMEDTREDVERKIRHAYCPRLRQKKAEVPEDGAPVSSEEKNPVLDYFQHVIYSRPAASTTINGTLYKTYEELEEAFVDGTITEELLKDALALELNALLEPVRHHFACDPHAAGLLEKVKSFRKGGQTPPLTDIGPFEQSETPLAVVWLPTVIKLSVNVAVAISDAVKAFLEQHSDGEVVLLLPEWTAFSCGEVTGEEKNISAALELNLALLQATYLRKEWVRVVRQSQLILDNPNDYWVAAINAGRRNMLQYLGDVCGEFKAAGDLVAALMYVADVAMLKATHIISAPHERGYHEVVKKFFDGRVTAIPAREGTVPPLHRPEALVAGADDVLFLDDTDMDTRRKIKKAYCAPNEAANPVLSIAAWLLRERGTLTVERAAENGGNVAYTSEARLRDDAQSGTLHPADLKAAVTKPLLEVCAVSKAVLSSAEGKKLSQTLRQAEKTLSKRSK
Please assign 0 (no) whenever Percent Effect is at or above 10%, and 1 (yes) whenever it is below.

# compound, assayed.target, label
records = [
    ("Cc1cc(C2CCCN2Cc2ccn(C)c(=O)c2)no1 (centres undefined)", "Tyrosyl-tRNA synthetase, putative (Trypanosoma cruzi (strain CL Brener)) (UniProt Q4DSP6)", "1 (yes)"),
]

Input line: Dear reviewer, please state whether COCC(=O)N1CC[C@@H](N2CCOCC2)[C@@H]1Cc1ccccc1 has Percent Effect strictly beneath 10%.
Output line: 0 (no)

Input line: Dear reviewer, please state whether Cc1ccc2cnn(CCC(=O)NCc3c(C)nn(C)c3C)c2c1 has Percent Effect strictly beneath 10%.
Output line: 1 (yes)

Input line: Dear reviewer, please state whether Cc1cccc(OCCC(=O)N2CCCN(C(N)=O)CC2)c1C has Percent Effect strictly beneath 10%.
Output line: 1 (yes)

Input line: Dear reviewer, please state whether c1ccc(Cn2cc3c(n2)C(CNCc2ccco2)OCC3)nc1 (centres undefined) has Percent Effect strictly beneath 10%.
Output line: 0 (no)

Input line: Dear reviewer, please state whether Cc1ncnc2c1CCN(Cc1ccccn1)CC2 has Percent Effect strictly beneath 10%.
Output line: 1 (yes)

Input line: Dear reviewer, please state whether CN(CCO)Cc1nnc(C2CCN(C(=O)c3cccnc3)CC2)n1C has Percent Effect strictly beneath 10%.
Output line: 0 (no)

Input line: Dear reviewer, please state whether CNC(=O)c1cc2c(nc1NCC1CC1)CCN(c1ccncn1)CC2 has Percent Effect strictly beneath 10%.
Output line: 1 (yes)

Input line: Dear reviewer, please state whether N#Cc1ccccc1OCCN1CCCC1Cn1cccn1 (centres undefined) has Percent Effect strictly beneath 10%.
Output line: 0 (no)

Input line: Dear reviewer, please state whether COCCNC(=O)[C@H]1C[C@@H]2CCN(Cc3ccoc3)C[C@H]2O1 has Percent Effect strictly beneath 10%.
Output line: 1 (yes)

Input line: Dear reviewer, please state whether CCn1c(C)nnc1CN(C)C1CCN(CCCOC)C1 (centres undefined) has Percent Effect strictly beneath 10%.
Output line: 0 (no)

Input line: Dear reviewer, please state whether CN(C)c1cc(C(=O)N2CCN(S(C)(=O)=O)CC2)ccn1 has Percent Effect strictly beneath 10%.
Output line: 1 (yes)

Input line: Dear reviewer, please state whether O=C(CCc1ccccc1)N1CCn2cc(CN3CCCC3)nc2C1 has Percent Effect strictly beneath 10%.
Output line: 0 (no)

Input line: Dear reviewer, please state whether Cc1ccc(NC2CCN(C(=O)c3cc(C(N)=O)cs3)CC2)nn1 has Percent Effect strictly beneath 10%.
Output line: 1 (yes)

Input line: Dear reviewer, please state whether Cc1nn(-c2ccccc2)cc1C(=O)N1CCCC(n2cccn2)C1 (centres undefined) has Percent Effect strictly beneath 10%.
Output line: 0 (no)

Input line: Dear reviewer, please state whether Cc1csc(Nc2cc(C3CCCCN3C)nc(C)n2)n1 (centres undefined) has Percent Effect strictly beneath 10%.
Output line: 1 (yes)

Input line: Dear reviewer, please state whether CN(Cc1ncc[nH]1)S(=O)(=O)c1cccc(C(=O)N2CCOCC2)c1 has Percent Effect strictly beneath 10%.
Output line: 1 (yes)

Input line: Dear reviewer, please state whether CCS(=O)(=O)NC(C(=O)NC)c1ccc(F)c(F)c1 (centres undefined) has Percent Effect strictly beneath 10%.
Output line: 0 (no)

Input line: Dear reviewer, please state whether CN(C)c1ncccc1CNS(=O)(=O)c1ccccc1F has Percent Effect strictly beneath 10%.
Output line: 0 (no)

Input line: Dear reviewer, please state whether CCc1nc(C)c(C(=O)NCCNc2cnccn2)s1 has Percent Effect strictly beneath 10%.
Output line: 0 (no)

Input line: Dear reviewer, please state whether CC(C)N(C)CC(=O)N1CCCC(c2ccc(C(=O)O)cc2)C1 (centres undefined) has Percent Effect strictly beneath 10%.
Output line: 0 (no)

Input line: Dear reviewer, please state whether Cc1ccc(C)c(CNC(=O)NC(C)(C(=O)O)c2ccco2)c1 (centres undefined) has Percent Effect strictly beneath 10%.
Output line: 0 (no)

Input line: Dear reviewer, please state whether COc1cccc(-c2noc(C3CCN(Cc4cn(C)nc4C)C3)n2)c1 (centres undefined) has Percent Effect strictly beneath 10%.
Output line: 0 (no)
